Assay remarks: in vivo
Assay context: cynomolgus monkey, in vivo, po, 10 mg/kg
Observation type: AUC(0-inf) (ng·h/mL)
Your answer is read as ng·h/mL, so omit the unit and give the number.

# AUC(0-inf) (molecule: `Cc1cn(-c2cc(NC(=O)c3ccc(C)c(Nc4nccc(-c5cccnc5)n4)c3)cc(C(F)(F)F)c2)cn1` ) is 2100

* * *

Measured AUC(0-inf), listed per entry.
Assay remarks: in vivo
Assay context: both, C57BL/6, mouse, in vivo, po, 10 mg/kg
Quick reminder: number only, in ng·h/mL, skip the unit.

>>> val("Cc1cn(-c2cc(NC(=O)c3ccc(C)c(Nc4nccc(-c5cccnc5)n4)c3)cc(C(F)(F)F)c2)cn1")
38400

Proceed to the following item.
The molecule listed as `Cc1ccc(NC(=O)c2ccc(CN3CCN(C)CC3)cc2)cc1Nc1nccc(-c2cccnc2)n1` shows AUC(0-inf) equal to 4850

* * *

Assay remarks: in vivo
Assay context: male, Hartley, guinea pig, iv, 10 mg/kg
Observation type: half-life (h)
// units = h; emit number, no label

Lab book: half-life of Cc1cn(-c2cc(NC(=O)c3ccc(C)c(Nc4nccc(-c5cccnc5)n4)c3)cc(C(F)(F)F)c2)cn1 [nilotinib] noted as 2.1

* * *

Assay remarks: in vivo
Assay context: both, C57BL/6, mouse, in vivo, po, 10 mg/kg
Observation type: half-life (h)
The reply should be a number in h, with the unit left off.

// half-life value for Cc1cn(-c2cc(NC(=O)c3ccc(C)c(Nc4nccc(-c5cccnc5)n4)c3)cc(C(F)(F)F)c2)cn1 [nilotinib] : 2.94

* * *

Assay remarks: in vivo
Assay context: both, C57BL/6, mouse, in vivo, po, 10 mg/kg, Cmax, nilotinib, oral 10 mg/kg, C57BL/6 mice
Observation type: Cmax

get_value(item= `Cc1cn(-c2cc(NC(=O)c3ccc(C)c(Nc4nccc(-c5cccnc5)n4)c3)cc(C(F)(F)F)c2)cn1` , readout=Cmax) returns ~18000 ng/mL

* * *

Assay remarks: in vivo
Assay context: male, dog, in vivo, po, 30 mg/kg
Observation type: Cmax (ng/mL)
Report only the number, with the unit ng/mL understood.

Entry `Cc1ccc(NC(=O)c2ccc(CN3CCN(C)CC3)cc2)cc1Nc1nccc(-c2cccnc2)n1` — recorded Cmax = 1680

* * *

Assay remarks: in vivo
Assay context: male, dog, in vivo, po, 10 mg/kg
Observation type: AUC(0-inf) (ng·h/mL)
Lab book: enter the figure in ng·h/mL, no units written.

AUC(0-inf) for Cc1cn(-c2cc(NC(=O)c3ccc(C)c(Nc4nccc(-c5cccnc5)n4)c3)cc(C(F)(F)F)c2)cn1 [nilotinib] is 9330

* * *

Assay remarks: in vivo
Assay context: male, dog, in vivo, po, 30 mg/kg
Observation type: Tmax (h)
Quick note: give the figure in h, leave out the unit.

Sure, the documented Tmax for Cc1ccc(NC(=O)c2ccc(CN3CCN(C)CC3)cc2)cc1Nc1nccc(-c2cccnc2)n1 [imatinib] is 3

* * *

Assay remarks: in vivo
Assay context: male, dog, in vivo, iv, 10 mg/kg
Observation type: MRT (h)
Quick note: give the figure in h, leave out the unit.

Form field MRT, entry `Cc1cn(-c2cc(NC(=O)c3ccc(C)c(Nc4nccc(-c5cccnc5)n4)c3)cc(C(F)(F)F)c2)cn1` : 6.7

* * *

Assay remarks: in vivo
Assay context: male, dog, in vivo, Bioavailability, nilotinib, oral 20 mg/kg in NMP/PEG 300 vs IV 10 mg/kg, prairie dogs
Method: Prairie dog PK studies were performed at Centers for Disease Control and Prevention (CDC, Atlanta). […] The animals were collected in Lubbock, TX. All animals are given full physical examination by a veterinarian prior to being shipped to CDC. […] For each blood sample collection, prairie dogs were anesthetized with 5% isoflurane gas and maintained with 1–3% isoflurane during sample collection through peripheral veins. Plasma was prepared and stored at -70 °C until bioanalysis. […]
Observation type: bioavailability

Entry under test: Cc1cn(-c2cc(NC(=O)c3ccc(C)c(Nc4nccc(-c5cccnc5)n4)c3)cc(C(F)(F)F)c2)cn1 [nilotinib] . Its bioavailability was ~24%

* * *

Assay remarks: in vivo
Assay context: both, C57BL/6, mouse, in vivo, iv, 10 mg/kg
Observation type: MRT (h)
Quick reminder: number only, in h, skip the unit.

Summary for this molecule, `Cc1cn(-c2cc(NC(=O)c3ccc(C)c(Nc4nccc(-c5cccnc5)n4)c3)cc(C(F)(F)F)c2)cn1` : MRT is 2.21

* * *

Measured AUC(0-inf) by item
Assay remarks: in vivo
Assay context: male, dog, in vivo, iv, 10 mg/kg
Protocol: Prairie dog PK studies were performed at Centers for Disease Control and Prevention (CDC, Atlanta). […] The animals were collected in Lubbock, TX. All animals are given full physical examination by a veterinarian prior to being shipped to CDC. […] For each blood sample collection, prairie dogs were anesthetized with 5% isoflurane gas and maintained with 1–3% isoflurane during sample collection through peripheral veins. Plasma was prepared and stored at -70 °C until bioanalysis. […]
Record the value in ng·h/mL, omitting the unit from your answer.

>>> val("Cc1cn(-c2cc(NC(=O)c3ccc(C)c(Nc4nccc(-c5cccnc5)n4)c3)cc(C(F)(F)F)c2)cn1")
57600

AUC(0-inf) recorded for this compound, `Cc1ccc(NC(=O)c2ccc(CN3CCN(C)CC3)cc2)cc1Nc1nccc(-c2cccnc2)n1` , is 12600

* * *

Assay remarks: in vivo
Assay context: male, dog, in vivo, po, 20 mg/kg
Observation type: Cmax (ng/mL)
Only the number, expressed in ng/mL, is required.

For this compound ( `Cc1cn(-c2cc(NC(=O)c3ccc(C)c(Nc4nccc(-c5cccnc5)n4)c3)cc(C(F)(F)F)c2)cn1` ), measured Cmax is 1670

* * *

Assay remarks: in vivo
Assay context: cynomolgus monkey, in vivo, po, 10 mg/kg, Apparent T1/2, nilotinib, oral 10 mg/kg in Avicel/HPMC, Cynomolgus monkeys, mean ± SD
Method: Six Animals (3.5 kg) were procured from Charles River, three (n = 3) for each route of administration. Animals were fasted overnight before dosing and at least 1 h following dose administration. The intravenous dose was given via a saphenous vein at an injection volume of 1 ml/kg, and oral dosing was performed via gavage at a dose volume of 5 ml/kg. […] Plasma was prepared and stored at-70 °C until bioanalysis. Sample preparation and bioanalysis was performed at the University of Cincinnati. […]
Observation type: half-life (h)
Just the number please, in h, no unit attached.

Value of half-life reported for the compound `Cc1cn(-c2cc(NC(=O)c3ccc(C)c(Nc4nccc(-c5cccnc5)n4)c3)cc(C(F)(F)F)c2)cn1` is 5.2

* * *

Assay remarks: in vivo
Assay context: male, dog, in vivo, po, 10 mg/kg, Bioavailability, nilotinib, oral 10 mg/kg in Avicel/HPMC suspension vs IV 10 mg/kg, prairie dogs
Observation type: bioavailability
# output: number + unit

Form field bioavailability, entry `Cc1cn(-c2cc(NC(=O)c3ccc(C)c(Nc4nccc(-c5cccnc5)n4)c3)cc(C(F)(F)F)c2)cn1` : 16%

* * *

Assay remarks: in vivo
Assay context: male, dog, in vivo, iv, 10 mg/kg
Observation type: clearance (mL/min/kg)
Field: numeric (mL/min/kg). Do not append units.

Lab note: measured clearance of `Cc1cn(-c2cc(NC(=O)c3ccc(C)c(Nc4nccc(-c5cccnc5)n4)c3)cc(C(F)(F)F)c2)cn1` was 3.17

* * *

Assay remarks: in vivo
Assay context: both, C57BL/6, mouse, in vivo, po, 10 mg/kg
Observation type: Tmax (min)
All answers are understood in min, so give the number only.

>>> val("Cc1ccc(NC(=O)c2ccc(CN3CCN(C)CC3)cc2)cc1Nc1nccc(-c2cccnc2)n1")
60

So for `Cc1cn(-c2cc(NC(=O)c3ccc(C)c(Nc4nccc(-c5cccnc5)n4)c3)cc(C(F)(F)F)c2)cn1` , the logged Tmax turned out to be 30

* * *

Assay remarks: in vivo
Assay context: male, dog, in vivo, po, 20 mg/kg
Observation type: Tmax (h)
Supply the numeric figure in h, leaving out any unit text.

Lookup result for Cc1cn(-c2cc(NC(=O)c3ccc(C)c(Nc4nccc(-c5cccnc5)n4)c3)cc(C(F)(F)F)c2)cn1 [nilotinib] ; measured Tmax: 7.2

* * *

Assay remarks: in vivo
Assay context: male, dog, in vivo, po, 20 mg/kg, Apparent T1/2, nilotinib, oral 20 mg/kg in NMP/PEG 300, prairie dogs, mean ± SD
Observation type: half-life (h)
State the answer as a number, implicitly in h.

Measured half-life, `Cc1cn(-c2cc(NC(=O)c3ccc(C)c(Nc4nccc(-c5cccnc5)n4)c3)cc(C(F)(F)F)c2)cn1` : 7.5

* * *

Assay remarks: in vivo
Assay context: cynomolgus monkey, in vivo, iv, 10 mg/kg
Observation type: clearance (mL/min/kg)
State just the number; it will be interpreted in mL/min/kg.

What the record says about Cc1cn(-c2cc(NC(=O)c3ccc(C)c(Nc4nccc(-c5cccnc5)n4)c3)cc(C(F)(F)F)c2)cn1 [nilotinib] : clearance is 10.7
